Give measured isoTOP-ABPP ratio (R) at liganded lysine P46783_K139 for each item. Keep answers brief.
Target desc: RPS10 40S ribosomal protein S10 (Homo sapiens)
Construct: isoTOP-ABPP experiments performed in cell lysates (in vitro); endogenous in cells; host or cells: soluble proteome of human cancer cell lines (MDA-MB-231; Ramos and Jurkat also prepared)
Test: competitive isoTOP-ABPP
Format: binding
Recorded conditions: 50 uM, in vitro, sol, 231
Write the number on its own, no unit after it.

### Prompt Any idea what isoTOP-ABPP ratio (R) at liganded lysine P46783_K139 was measured for O=C(Oc1ccc([N+](=O)[O-])cc1[N+](=O)[O-])C(c1ccccc1)(c1ccccc1)c1ccccc1 [fragment 42, 2,4-Dinitrophenyl 2,2,2-triphenylacetate] ?
### Response 1.0

### Prompt Likewise for O=C(CC12CC3CC(CC(C3)C1)C2)Oc1ccc([N+](=O)[O-])cc1[N+](=O)[O-] [fragment 38] ?
### Response 1.0

### Prompt Field entry: O=C(Oc1ccc([N+](=O)[O-])cc1[N+](=O)[O-])c1ccc(-c2ccccc2)cc1 [fragment 37]
### Response 0.6

### Prompt Another: O=C(CCc1coc2cc(F)ccc2c1=O)Oc1ccc([N+](=O)[O-])cc1[N+](=O)[O-] [fragment 36]
### Response 0.7

* * *

Target desc: TRAP1 Heat shock protein 75 kDa, mitochondrial (Homo sapiens, UniProt Q12931)
Construct: isoTOP-ABPP experiments performed in cell lysates (in vitro); endogenous in cells; host or cells: soluble proteome of human cancer cell lines (MDA-MB-231, Ramos, Jurkat)
Sequence (Q12931 60-704): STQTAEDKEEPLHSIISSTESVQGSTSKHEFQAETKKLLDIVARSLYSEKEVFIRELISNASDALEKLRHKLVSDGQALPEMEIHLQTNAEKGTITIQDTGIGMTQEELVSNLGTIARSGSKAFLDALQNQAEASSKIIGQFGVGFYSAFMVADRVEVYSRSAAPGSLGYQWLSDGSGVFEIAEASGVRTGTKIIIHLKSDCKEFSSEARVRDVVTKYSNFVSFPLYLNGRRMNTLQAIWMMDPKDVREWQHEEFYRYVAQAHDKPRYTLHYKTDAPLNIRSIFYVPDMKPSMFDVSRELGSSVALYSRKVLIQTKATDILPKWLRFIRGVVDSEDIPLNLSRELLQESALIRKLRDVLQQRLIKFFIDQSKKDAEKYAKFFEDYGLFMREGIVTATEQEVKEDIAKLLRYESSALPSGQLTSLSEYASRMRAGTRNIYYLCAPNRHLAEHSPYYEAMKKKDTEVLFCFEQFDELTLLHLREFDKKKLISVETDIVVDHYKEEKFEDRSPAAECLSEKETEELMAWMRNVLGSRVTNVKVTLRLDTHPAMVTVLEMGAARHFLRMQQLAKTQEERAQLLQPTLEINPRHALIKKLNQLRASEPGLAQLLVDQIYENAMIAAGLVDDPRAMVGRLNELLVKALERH
Test: competitive isoTOP-ABPP
Format: binding
Recorded conditions: 50 uM, in vitro, sol, 231
Would you mind labelling by isoTOP-ABPP ratio (R) at liganded lysine Q12931_K699? At or over 1 is yes (1), under is no (0).

### Prompt Check if isoTOP-ABPP ratio (R) at liganded lysine Q12931_K699 >= 1 (inclusive). Item: O=C(Oc1ccc([N+](=O)[O-])cc1[N+](=O)[O-])C1CCN(C(=O)OCc2ccccc2)CC1
### Response yes (1)

### Prompt Subsequent entry: O=C(Oc1ccc([N+](=O)[O-])cc1[N+](=O)[O-])c1ccc(Oc2ccccc2)cc1 [fragment 39, 2,4-Dinitrophenyl 4-phenoxybenzoate]
### Response no (0)

### Prompt Follow-up item: O=C(Oc1ccc([N+](=O)[O-])cc1[N+](=O)[O-])c1ccc2ccccc2n1
### Response no (0)

### Prompt Now consider CC(C)(C)OC(=O)NCCCC(=O)Oc1ccc([N+](=O)[O-])cc1[N+](=O)[O-] and answer again.
### Response yes (1)

### Prompt And O=C(Oc1ccc([N+](=O)[O-])cc1[N+](=O)[O-])c1ccc(-c2ccccc2)cc1 ?
### Response no (0)

### Prompt Param item: O=C(Oc1ccc([N+](=O)[O-])cc1[N+](=O)[O-])c1ccccc1Nc1cccc(C(F)(F)F)c1
### Response no (0)

### Prompt Also check O=C(CCc1coc2cc(F)ccc2c1=O)Oc1ccc([N+](=O)[O-])cc1[N+](=O)[O-]
### Response yes (1)

### Prompt Please give the result for O=C(CC12CC3CC(CC(C3)C1)C2)Oc1ccc([N+](=O)[O-])cc1[N+](=O)[O-] too.
### Response yes (1)

* * *

Target desc: ACBD3 Golgi resident protein GCP60 (Homo sapiens, UniProt Q9H3P7)
Construct: isoTOP-ABPP experiments performed in cell lysates (in vitro); endogenous in cells; host or cells: soluble proteome of human cancer cell lines (MDA-MB-231; Ramos and Jurkat also prepared)
Sequence (Q9H3P7 whole entry): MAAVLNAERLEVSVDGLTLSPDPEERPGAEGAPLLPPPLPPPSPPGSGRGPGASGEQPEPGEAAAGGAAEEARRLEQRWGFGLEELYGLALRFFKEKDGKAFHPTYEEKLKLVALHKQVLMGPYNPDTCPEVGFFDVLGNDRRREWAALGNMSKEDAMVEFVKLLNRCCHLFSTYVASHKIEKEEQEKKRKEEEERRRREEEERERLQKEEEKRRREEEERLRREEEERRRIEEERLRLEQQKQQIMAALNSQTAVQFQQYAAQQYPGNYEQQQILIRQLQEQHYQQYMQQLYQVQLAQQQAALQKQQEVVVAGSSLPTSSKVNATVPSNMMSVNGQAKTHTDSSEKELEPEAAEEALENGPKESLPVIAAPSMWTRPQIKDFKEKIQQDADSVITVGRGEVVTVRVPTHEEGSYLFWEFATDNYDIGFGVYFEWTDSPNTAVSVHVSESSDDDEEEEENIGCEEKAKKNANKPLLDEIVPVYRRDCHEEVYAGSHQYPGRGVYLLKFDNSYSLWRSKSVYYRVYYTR
Test: competitive isoTOP-ABPP
Assay type: binding
Recorded conditions: 50 uM, in vitro, sol, 231
Measurement name: isoTOP-ABPP ratio (R) at liganded lysine Q9H3P7_K117

### Prompt Need isoTOP-ABPP ratio (R) at liganded lysine Q9H3P7_K117, item O=C(Oc1ccc([N+](=O)[O-])cc1[N+](=O)[O-])C1CCN(C(=O)OCc2ccccc2)CC1
### Response 1.1

### Prompt Moving on to the next compound: O=C(Oc1ccc([N+](=O)[O-])cc1[N+](=O)[O-])c1ccccc1Nc1cccc(C(F)(F)F)c1
### Response 0.9

### Prompt Moving on to the next compound: O=C(CC12CC3CC(CC(C3)C1)C2)Oc1ccc([N+](=O)[O-])cc1[N+](=O)[O-]
### Response 1.0

### Prompt Same question for O=C(Oc1ccc([N+](=O)[O-])cc1[N+](=O)[O-])c1ccc2ccccc2n1 please.
### Response 1.3

### Prompt What do you have for CC(C)(C)OC(=O)NCCCC(=O)Oc1ccc([N+](=O)[O-])cc1[N+](=O)[O-] ?
### Response 1.2

### Prompt Next: O=C(Oc1ccc([N+](=O)[O-])cc1[N+](=O)[O-])C(c1ccccc1)(c1ccccc1)c1ccccc1 [fragment 42, 2,4-Dinitrophenyl 2,2,2-triphenylacetate]
### Response 1.0

### Prompt Same lookup for O=C(Oc1ccc([N+](=O)[O-])cc1[N+](=O)[O-])c1ccc(Oc2ccccc2)cc1 [fragment 39, 2,4-Dinitrophenyl 4-phenoxybenzoate] , please.
### Response 0.9

### Prompt Now the same for O=C(Oc1ccc([N+](=O)[O-])cc1[N+](=O)[O-])c1ccc(-c2ccccc2)cc1
### Response 0.9

### Prompt Same again, this time with CC(=O)Oc1ccc([N+](=O)[O-])cc1[N+](=O)[O-] [fragment 43, 2,4-Dinitrophenyl acetate]
### Response 1.2

### Prompt Continue with O=C(CCc1coc2cc(F)ccc2c1=O)Oc1ccc([N+](=O)[O-])cc1[N+](=O)[O-]
### Response 1.4

* * *

Target desc: UCHL5 Ubiquitin carboxyl-terminal hydrolase isozyme L5 (Homo sapiens, UniProt Q9Y5K5)
Construct: endogenous in cells; host or cells: MDA-MB-231 (soluble fraction of lysate)
Sequence (Q9Y5K5 1-329): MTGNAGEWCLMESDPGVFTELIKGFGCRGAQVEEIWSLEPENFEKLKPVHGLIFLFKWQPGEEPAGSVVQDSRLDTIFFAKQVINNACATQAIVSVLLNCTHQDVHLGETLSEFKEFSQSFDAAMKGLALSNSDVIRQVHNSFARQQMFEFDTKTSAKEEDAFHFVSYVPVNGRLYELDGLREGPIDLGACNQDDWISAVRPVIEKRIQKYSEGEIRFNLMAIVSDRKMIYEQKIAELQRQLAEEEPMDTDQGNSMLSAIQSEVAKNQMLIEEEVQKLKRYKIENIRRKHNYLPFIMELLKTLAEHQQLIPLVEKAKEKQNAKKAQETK
Test: competitive isoTOP-ABPP
Assay type: binding
Recorded conditions: 50 uM_231_sol_in vitro
Provide the reported isoTOP-ABPP ratio, lysine Q9Y5K5_K323 of each item.

### Prompt Look at this molecule and give its reported isoTOP-ABPP ratio, lysine Q9Y5K5_K323. O=C(CCc1ccc2c(c1)OCO2)Oc1ccc([N+](=O)[O-])cc1[N+](=O)[O-] [fragment 45]
### Response 1.5

### Prompt Please answer likewise for N#Cc1ccc(C(=O)Oc2ccc([N+](=O)[O-])cc2[N+](=O)[O-])cc1 [fragment 44, 2,4-Dinitrophenyl 4-cyanobenzoate]
### Response 0.9

### Prompt Again, but for O=C(Oc1c(F)c(F)c(C(F)(F)F)c(F)c1F)c1cc(C(F)(F)F)cc(C(F)(F)F)c1 [fragment 47]
### Response 1.4

### Prompt Next: NC(=O)c1cc(C(F)(F)F)cc(C(F)(F)F)c1 [fragment 51, reference compound]
### Response 1.0

### Prompt Consider next the molecule O=C(Oc1c(F)c(F)cc(F)c1F)c1cc(C(F)(F)F)cc(C(F)(F)F)c1 [fragment 48] in the same way.
### Response 0.9

### Prompt Next record, please: O=C(ON1C(=O)CCC1=O)c1cc(C(F)(F)F)cc(C(F)(F)F)c1 [fragment 46]
### Response 1.0

Every entry's value here was drawn from patent US20210255193A1.
